From: the METLIN SMRT retention time set (Domingo-Almenara et al. 2019)

Test: gradient 5% acetonitrile 3 min, to 50% in 2 min, to 85% in 15 min, held 3 min, 100 µL/min
Conditions: column: Zorbax Extend-C18 2.1 x 50 mm; eluents: water / acetonitrile, 0.1% formic acid
measurementLabel: RP-LC retention time (s)
# number only, unit s dropped from output

Assign RP-LC retention time to the following record: COc1ccc(C(=O)Nc2c(-c3ccc(F)cc3)nc3cc(C)ccn23)cc1OC 647

Assign RP-LC retention time to the following record: COCCNC(=O)Cc1ccc(NS(=O)(=O)c2ccccc2Cl)cc1 676

Assign RP-LC retention time to the following record: COc1ccc(NC(=O)C2CC(=O)N(c3ccc4c(c3)CCN4C(=O)C3CC3)C2)cc1 (stereo not given) 740

Assign RP-LC retention time to the following record: CCS(=O)(=O)N1CC(=O)N(c2cc(C)ccc2C)C(C)(C(=O)NCc2ccc(F)cc2)C1 (stereo not given) 861

Assign RP-LC retention time to the following record: O=c1ccc(-c2ccccc2Cl)nn1Cc1nc(-c2ccc3c(c2)OCO3)no1 996

Assign RP-LC retention time to the following record: CC(C)c1nnc(-c2ccc(S(=O)(=O)N3CCOCC3)o2)o1 754

Assign RP-LC retention time to the following record: CSc1ccccc1NC(=O)c1cn2c(n1)CCCC2 638

Assign RP-LC retention time to the following record: COc1ccc(C)cc1NC(=O)N1CCC2(CC1)NC(=O)c1ccc(F)cc1N2C 777

Assign RP-LC retention time to the following record: Cc1cnc(C2CN(C(=O)c3cccn3C)C2)n1CC1CC1 608

Assign RP-LC retention time to the following record: CN(C)C(=O)c1csc(S(=O)(=O)N2CCC(C(=O)NC3CCCCC3)CC2)c1 720
